# Test system: HCT116
# procedure_summary: SRB drug sensitivity, HCT116 parental cells
# Format: cell-based
# condition: Homo sapiens, HCT-116, 72 hours with agent

>  <smiles_text>
O=C1c2c(O)ccc(O)c2C(=O)c2c(NCCNCCO)ccc(NCCNCCO)c21

>  <IC50>
7 nM

$$$$
>  <smiles_text>
CC(=O)O[C@H]1C(=O)[C@@]2(C)[C@H]([C@H](OC(=O)c3ccccc3)[C@]3(O)C[C@H](OC(=O)[C@H](O)[C@@H](NC(=O)c4ccccc4)c4ccccc4)C(C)=C1C3(C)C)[C@]1(OC(C)=O)CO[C@@H]1C[C@@H]2O

>  <IC50>
1.1 nM

$$$$
>  <smiles_text>
CC[C@@]1(O)C(=O)OCc2c1cc1n(c2=O)Cc2cc3ccccc3nc2-1

>  <IC50>
9.4 nM

$$$$
>  <smiles_text>
CC[C@@]1(O)C(=O)OCc2c1cc1n(c2=O)Cc2cc3c(CN(C)C)c(O)ccc3nc2-1

>  <IC50>
34 nM

$$$$
